Origin of measurements: patent US20260242478A1

Recorded Anti-CD28 Fab signal (phage binding ELISA) values for a group of binders are listed next.
# target: T1, Anti-CD28 Fab (SEQ ID NOs: 696, 697)
# T1 construct: Biotinylated and captured on neutravidin coated plates in the phage ELISA
# T1 sequence (VH, as listed by the source, chain 1 of 2): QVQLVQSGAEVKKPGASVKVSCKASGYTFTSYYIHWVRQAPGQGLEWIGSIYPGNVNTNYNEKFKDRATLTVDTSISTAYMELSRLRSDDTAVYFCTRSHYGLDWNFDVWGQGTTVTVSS
# T1 sequence (VL, as listed by the source, chain 2 of 2): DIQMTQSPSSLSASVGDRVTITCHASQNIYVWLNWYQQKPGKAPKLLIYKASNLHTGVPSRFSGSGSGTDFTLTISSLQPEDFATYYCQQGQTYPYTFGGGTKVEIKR
# assay_text: phage ELISA; biotinylated anti-CD28 Fab on neutravidin plate, clonal phage supernatant, anti-M13 HRP detection;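 note: crude supernatants of single phage clones picked after panning were screened for binding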
Write the number on its own, no unit after it.

{"binder": "YCDGHELRYMAKCL (Clonal phage of the Peptide-87 library) [Phage-671]", "recorded_number": 2.07}
{"binder": "YCEGHSDEYMLKCL (Clonal phage of the Peptide-87 library) [Phage-673]", "recorded_number": 2.06}
{"binder": "YCDGHLPAYMAKCL (Clonal phage of the Peptide-87 library) [Phage-672]", "recorded_number": 2.06}

// Anti-CD28 Fab signal (phage binding ELISA) value for YCEGHAPQYIQKCL (Clonal phage of the Peptide-87 library) [Phage-670] : 2.07

The binder YCDGHAPEYVMKCL (Clonal phage of the Peptide-87 library) [Phage-682] showed Anti-CD28 Fab signal (phage binding ELISA) equal to 2.05

Query YCAGHIEEYMWKCL (Clonal phage of the Peptide-87 library) [Phage-680] yields Anti-CD28 Fab signal (phage binding ELISA) of 2.05
